Tested on: PBMC
method-summary: IFNg/IL-5 dual ELISPOT after 14 day in vitro stimulation of PBMC with Tau peptides
Assay type: cell-based, human
test-parameters: healthy controls < 35 years old
Where no end group is shown, it is not given here. [ ]: non-standard residue; d: D form. pT = C[C@@H](OP(=O)(O)O)[C@H](N)C(=O)O; pS = N[C@@H](COP(=O)(O)O)C(=O)O
measurement-type: HC < 35 Total SFC

## Input Given the entry KVAVVRTPPKSPSSAK (KVAVVR[pT]PPKSPSSAK; listed as Homo sapiens) , what HC < 35 Total SFC was observed with PBMC?
## Output 0 SFC

## Input What about this sequence? DFKDRVQSKIGSLDNI (DFKDRVQSKIG[pS]LDNI; listed as Homo sapiens) [Tau 16-mer, start 345]
## Output 0 SFC

## Input Also check DRSGYSSPGSPGTPGS (DRSGYSSPG[pS]PG[pT]PGS; listed as Homo sapiens) [Tau 16-mer, start 193]
## Output 0 SFC

## Input Next sequence: PAPKTPPSSGEPPKSG (PAPK[pT]PPSSGEPPKSG; listed as Homo sapiens)
## Output 0 SFC

## Input Next record, please: DRSGYSSPGZPGXPGS
## Output 3952 SFC

## Input Likewise for IDMVDSPQLATLADEV (listed as Homo sapiens) [Tau 16-mer, start 417] ?
## Output 0 SFC

## Input # repeat for SNVSSTGSIDMVDZPQ
## Output 0 SFC

## Input Would you kindly repeat that for DFKDRVQSKIGZLDNI ?
## Output 1097 SFC

## Input Query TPPTREPKKVAVVRTP (listed as Homo sapiens) next
## Output 0 SFC

## Input Repeat with PAPKXPPSSGEPPKSG (PAPK[pT]PPSSGEPPKSG)
## Output 21745 SFC

## Input Thanks! And SNVSSTGSIDMVDSPQ (listed as Homo sapiens) [Tau 16-mer, start 409] ?
## Output 0 SFC

## Input Also TPPTREPKKVAVVRXP ?
## Output 397 SFC

## Input What do you get for PMPDLKNVKSKIGSTE (PMPDLKNVKSKIG[pS]TE; listed as Homo sapiens) [Tau 16-mer, start 249] ?
## Output 368 SFC

## Input Also check KVAVVRXPPKSPSSAK
## Output 16927 SFC

## Input Continue with PMPDLKNVKSKIGZTE
## Output 720 SFC

## Input How about this sequence: IDMVDZPQLATLADEV
## Output 563 SFC

* * *

System: PBMC
method-summary: IFNg/IL-5 dual ELISPOT after 14 day in vitro stimulation of PBMC with Tau peptides
Assay type: cell-based, human
test-parameters: across all cohorts
Where no end group is shown, it is not given here. [ ]: non-standard residue; d: D form. pT = C[C@@H](OP(=O)(O)O)[C@H](N)C(=O)O
Note to self: values exactly at 1000 SFC are 1 (yes). So Average SFC per responder at or above 1000 SFC is 1 (yes), below is 0 (no).

## Input State whether the measured Average SFC per responder reaches 1000 SFC, counting equality as reaching it, for KVAVVRXPPKSPSSAK
## Output 1 (yes)

## Input What do we get for PAPKXPPSSGEPPKSG (PAPK[pT]PPSSGEPPKSG) ?
## Output 1 (yes)

## Input What about this sequence? HVTQARMVSKSKDGTG (listed as Homo sapiens)
## Output 1 (yes)

## Input Lookup LATLADEVSASLAKQG (listed as Homo sapiens) [Tau 16-mer, start 425]
## Output 0 (no)

* * *

target-system: DPB1*04:02 (Homo sapiens, UniProt P04440+P20036, A65V/A84D/A85E/L207M)
Sequence (P04440 30-258 A65V/A84D/A85E/L207M): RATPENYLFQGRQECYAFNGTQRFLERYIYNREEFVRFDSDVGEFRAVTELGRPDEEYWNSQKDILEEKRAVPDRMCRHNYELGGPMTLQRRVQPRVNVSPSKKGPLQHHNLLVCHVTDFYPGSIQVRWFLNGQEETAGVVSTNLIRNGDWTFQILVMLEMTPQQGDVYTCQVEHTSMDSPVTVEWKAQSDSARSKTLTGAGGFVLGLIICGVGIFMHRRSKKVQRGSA
Sequence (P20036 29-260): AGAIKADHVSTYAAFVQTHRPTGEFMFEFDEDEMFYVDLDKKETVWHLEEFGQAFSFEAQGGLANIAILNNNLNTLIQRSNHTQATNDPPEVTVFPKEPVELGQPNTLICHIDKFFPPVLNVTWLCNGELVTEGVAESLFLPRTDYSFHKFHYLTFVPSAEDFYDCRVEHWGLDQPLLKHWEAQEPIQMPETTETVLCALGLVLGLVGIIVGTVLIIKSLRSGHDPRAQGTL
method-summary: competition binding assay, purified HLA DPB1*04:02
test-parameters: purified HLA, radiolabeled peptide competition; nM; read-out: binding to DPB1*04:02 (IC50)
So I've got a bunch of compounds here, and I need their IC50 values.

## Input Reported IC50, compound CSCC[C@H](NC(=O)[C@H](CCC(=O)O)NC(=O)[C@H](Cc1ccc(O)cc1)NC(=O)[C@H](C)NC(=O)[C@H](CCC(=O)O)NC(=O)[C@H](CC(N)=O)NC(=O)[C@H](CC(=O)O)NC(=O)[C@@H]1CCCN1C(=O)[C@H](CC(=O)O)NC(=O)[C@@H](NC(=O)[C@@H]1CCCN1C(=O)[C@@H](N)CCSC)C(C)C)C(=O)N1CCC[C@H]1C(=O)N[C@@H](CO)C(=O)N[C@@H](CCC(=O)O)C(=O)O : ____
## Output > 10000 nM

## Input Item: CSCC[C@H](NC(=O)[C@@H](N)CCC(=O)O)C(=O)N1CCC[C@H]1C(=O)N[C@@H](CO)C(=O)N[C@@H](CCC(=O)O)C(=O)N[C@@H](CCC(=O)O)C(=O)NCC(=O)N[C@@H](Cc1ccc(O)cc1)C(=O)N[C@@H](CCC(N)=O)C(=O)N[C@@H](CC(=O)O)C(=O)N[C@@H](Cc1ccc(O)cc1)C(=O)N[C@@H](CCC(=O)O)C(=O)N1CCC[C@H]1C(=O)N[C@@H](CCC(=O)O)C(=O)N[C@@H](C)C(=O)O
## Output > 10000 nM

## Input Similarly, CSCC[C@H](NC(=O)[C@H](CCC(=O)O)NC(=O)[C@H](Cc1ccc(O)cc1)NC(=O)[C@H](C)NC(=O)[C@H](CCC(=O)O)NC(=O)[C@H](CC(N)=O)NC(=O)[C@H](CC(=O)O)NC(=O)[C@@H]1CCCN1C(=O)[C@H](CC(=O)O)NC(=O)[C@@H](NC(=O)[C@@H]1CCCN1C(=O)[C@@H](N)CCSC)C(C)C)C(=O)N1CCC[C@H]1C(=O)N[C@@H](COP(=O)(O)O)C(=O)N[C@@H](CCC(=O)O)C(=O)O ?
## Output > 10000 nM

* * *

target-system: DPB1*04:02 (Homo sapiens, UniProt P04440+P20036, A65V/A84D/A85E/L207M)
method-summary: competition binding assay, purified HLA DPB1*04:02
test-parameters: purified HLA, radiolabeled peptide competition; nM; read-out: binding to DPB1*04:02 (IC50)
measurement-type: IC50

## Input // lookup IC50 for CSCC[C@H](NC(=O)[C@H](CCC(=O)O)NC(=O)[C@H](Cc1ccc(O)cc1)NC(=O)[C@H](C)NC(=O)[C@H](CCC(=O)O)NC(=O)[C@H](CC(N)=O)NC(=O)[C@@H](N)CC(=O)O)C(=O)N1CCC[C@H]1C(=O)N[C@@H](COP(=O)(O)O)C(=O)N[C@@H](CCC(=O)O)C(=O)N[C@@H](CCC(=O)O)C(=O)NCC(=O)N[C@@H](Cc1ccc(O)cc1)C(=O)N[C@@H](CCC(N)=O)C(=O)N[C@@H](CC(=O)O)C(=O)O
## Output > 10000 nM

* * *

Kindly state IC50 for each of the entries shown.
target-system: DPB1*04:01 (Homo sapiens)
method-summary: competition binding assay, purified HLA DPB1*04:01
test-parameters: purified HLA, radiolabeled peptide competition; nM; read-out: binding to DPB1*04:01 (IC50)

## Input Look up IC50 with DPB1*04:01 (Homo sapiens) for this molecule: CSCC[C@H](NC(=O)[C@H](CCC(=O)O)NC(=O)[C@H](Cc1ccc(O)cc1)NC(=O)[C@H](C)NC(=O)[C@H](CCC(=O)O)NC(=O)[C@H](CC(N)=O)NC(=O)[C@@H](N)CC(=O)O)C(=O)N1CCC[C@H]1C(=O)N[C@@H](COP(=O)(O)O)C(=O)N[C@@H](CCC(=O)O)C(=O)N[C@@H](CCC(=O)O)C(=O)NCC(=O)N[C@@H](Cc1ccc(O)cc1)C(=O)N[C@@H](CCC(N)=O)C(=O)N[C@@H](CC(=O)O)C(=O)O
## Output > 10000 nM

## Input How about CSCC[C@H](NC(=O)[C@H](CCC(=O)O)NC(=O)[C@H](Cc1ccc(O)cc1)NC(=O)[C@H](C)NC(=O)[C@H](CCC(=O)O)NC(=O)[C@H](CC(N)=O)NC(=O)[C@H](CC(=O)O)NC(=O)[C@@H]1CCCN1C(=O)[C@H](CC(=O)O)NC(=O)[C@@H](NC(=O)[C@@H]1CCCN1C(=O)[C@@H](N)CCSC)C(C)C)C(=O)N1CCC[C@H]1C(=O)N[C@@H](CO)C(=O)N[C@@H](CCC(=O)O)C(=O)O ?
## Output > 10000 nM

## Input Please give the result for CSCC[C@H](NC(=O)[C@@H](N)CCC(=O)O)C(=O)N1CCC[C@H]1C(=O)N[C@@H](CO)C(=O)N[C@@H](CCC(=O)O)C(=O)N[C@@H](CCC(=O)O)C(=O)NCC(=O)N[C@@H](Cc1ccc(O)cc1)C(=O)N[C@@H](CCC(N)=O)C(=O)N[C@@H](CC(=O)O)C(=O)N[C@@H](Cc1ccc(O)cc1)C(=O)N[C@@H](CCC(=O)O)C(=O)N1CCC[C@H]1C(=O)N[C@@H](CCC(=O)O)C(=O)N[C@@H](C)C(=O)O too.
## Output > 10000 nM
